Each item that follows carries a reported normalised viability.
test system: HDQ-P1; assay: normalised viability (% of control), CellTiter-Blue; higher = more viable cells (about 100 = DMSO control); conditions: incubation time: 72 h
Dear colleague, please send the value followed by its unit.

molecule | recorded.measurement
Cc1ccc(C(=O)Nc2ccc(CN3CCN(C)CC3)c(C(F)(F)F)c2)cc1C#Cc1cnc2cccnn12 [Ponatinib] (300 nM) | 58.9%
Cc1ccc(C(=O)N(CCCN)[C@@H](c2oc3cc(Cl)ccc3c(=O)c2Cc2ccccc2)C(C)C)cc1 (300 nM) | 62.6%
O=P1(NCCCl)OCCCN1CCCl (stereo unspecified) [Ifosfamide] (3000 nM) | 107%

IN: Using known records, supply normalised viability for CC(C)Cn1cnc2c(N)nc3ccccc3c21 [Imiquimod] (3000 nM)
OUT: 89.1%

IN: Using known records, supply normalised viability for Cn1c(CCCC(=O)O)nc2cc(N(CCCl)CCCl)ccc21 [Bendamustine] (3000 nM)
OUT: 101%

IN: Using known records, supply normalised viability for CC(=O)Nc1ccc(C(=O)Nc2ccccc2N)cc1 [CI-994] (300 nM)
OUT: 130%
